Origin of measurements: the SangsterLogP compilation

Experiment: method code SF-AS, from DOI: 10.1021/jo00922a017
Conditions: pH 1.0
Output T for records whose logD is lower than 3, F for records at or above 3.

Sample answers from the record:
smiles.structure: O=S(=O)(Nc1cccc(F)c1)C(F)(F)F
assigned.category: F

smiles.structure: O=S(=O)(Nc1ccc(Cl)cc1Cl)C(F)(F)F
assigned.category: F

smiles.structure: O=S(=O)(Nc1ccc(C(F)(F)F)cc1)C(F)(F)F
assigned.category: F

smiles.structure: CS(=O)(=O)c1cccc(NS(=O)(=O)C(F)(F)F)c1
assigned.category: T

smiles.structure: O=S(=O)(Nc1ccc(Cl)cc1)C(F)(F)F
assigned.category: F

smiles.structure: O=S(=O)(CF)Nc1ccccc1
assigned.category: T

Hi there! Is logD for O=S(=O)(Nc1cccc(Cl)c1)C(F)(F)F below 3, do you know? F

Try this molecule next: O=S(=O)(Nc1ccc(-c2ccccc2)cc1)C(F)(F)F F

Try this molecule next: O=S(=O)(Nc1cccc(C(F)(F)F)c1)C(F)(F)F F

Try this molecule next: O=S(=O)(Nc1ccc(F)cc1)C(F)(F)F F

Try this molecule next: CS(=O)(=O)Nc1ccc(Cl)cc1 T

====

Assign logD to each entry below.
Test: method code SF-AS, from DOI: 10.1021/jo00922a017
Settings: pH 1.0

smiles.structure: O=S(=O)(Nc1ccc(F)cc1F)C(F)(F)F
value.measured: 3.06
//
smiles.structure: O=S(=O)(Nc1cccc(Br)c1)C(F)(F)F
value.measured: 3.82
//
smiles.structure: CC(=O)c1cccc(NS(=O)(=O)C(F)(F)F)c1
value.measured: 2.78
//
smiles.structure: O=S(=O)(CF)Nc1ccc(Cl)cc1
value.measured: 2.25
//
smiles.structure: O=S(=O)(Nc1ccc(Cl)cc1)C(F)F
value.measured: 2.84

List logD for every entry below, keeping the order given.
1. COc1cccc(NS(=O)(=O)C(F)(F)F)c1
2. Cc1ccc(NS(=O)(=O)C(F)(F)F)cc1
3. CS(=O)(=O)c1ccc(NS(=O)(=O)C(F)(F)F)cc1

3.13
3.6
1.99
